# Test system: BT-474
# assay name: normalised response (% of control), CellTiter-Glo; higher = more viable cells (100 = DMSO, 0 = benzethonium chloride kill control)
# run parameters: incubation time: 72 h
measured parameter: normalised response (%)
Hi! Could you send only the number? It should be in %, unit omitted.

May I ask what normalised response has been recorded for CCN(CC)CCOc1ccc(C(=C(Cl)c2ccccc2)c2ccccc2)cc1 [Clomifene] (10000 nM) ?
8.15

May I ask what normalised response has been recorded for COc1cc2c(N3CCN(C(=O)Nc4ccc(OC(C)C)cc4)CC3)ncnc2cc1OCCCN1CCCCC1 [Tandutinib] (1000 nM) ?
97.7

May I ask what normalised response has been recorded for CO[C@H](C(=O)[C@@H](O)[C@@H](C)O)[C@@H]1Cc2cc3cc(O[C@H]4C[C@@H](O[C@@H]5C[C@@H](O)[C@H](O)[C@@H](C)O5)[C@H](O)[C@@H](C)O4)c(C)c(O)c3c(O)c2C(=O)[C@H]1O[C@H]1C[C@@H](O[C@@H]2C[C@@H](O)[C@@H](O[C@@H]3C[C@](C)(O)[C@H](O)[C@@H](C)O3)[C@@H](C)O2)[C@H](O)[C@@H](C)O1 [Plicamycin] (10000 nM) ?
9.55

May I ask what normalised response has been recorded for N[C@@H](Cc1ccc(N(CCCl)CCCl)cc1)C(=O)O [Melphalan] (12500 nM) ?
2.03

May I ask what normalised response has been recorded for NC(=O)NO [Hydroxyurea] (100000 nM) ?
97.2

May I ask what normalised response has been recorded for COc1cc(Nc2ncc(F)c(Nc3ccc4c(n3)N(COP(=O)(O)O)C(=O)C(C)(C)O4)n2)cc(OC)c1OC [Fostamatinib] (2500 nM) ?
27

May I ask what normalised response has been recorded for NC1(c2ccc(-c3nc4ccn5c(=O)[nH]nc5c4cc3-c3ccccc3)cc2)CCC1 [MK-2206] (1000 nM) ?
95.4

* * *

# Test system: MCF-10A
# assay name: normalised response (% of control), CellTiter-Glo; higher = more viable cells (100 = DMSO, 0 = benzethonium chloride kill control)
# run parameters: incubation time: 72 h
For each record, write down the corresponding normalised response.
Hi! Could you send only the number? It should be in %, unit omitted.

Form field - read-out: normalised response; system: MCF-10A; submitted item: Cc1c(N)nc([C@H](CC(N)=O)NC[C@H](N)C(N)=O)nc1C(=O)N[C@H](C(=O)N[C@H](C)[C@@H](O)[C@H](C)C(=O)N[C@H](C(=O)NCCc1nc(-c2nc(C(=O)NCCC[S+](C)C)cs2)cs1)[C@@H](C)O)[C@@H](OC1OC(CO)C(O)C(O)C1OC1OC(CO)C(O)C(OC(N)=O)C1O)c1cnc[nH]1 (stereo partly specified) [Bleomycin] (1000 nM)
96

Form field - read-out: normalised response; system: MCF-10A; submitted item: CO[C@H]1C[C@@H]2CC[C@@H](C)[C@@](O)(O2)C(=O)C(=O)N2CCCC[C@H]2C(=O)O[C@H]([C@H](C)C[C@@H]2CC[C@@H](O)[C@H](OC)C2)CC(=O)[C@H](C)/C=C(\C)[C@@H](O)[C@@H](OC)C(=O)[C@H](C)C[C@H](C)/C=C/C=C/C=C/1C [Sirolimus] (0.01 nM)
106

Form field - read-out: normalised response; system: MCF-10A; submitted item: Nc1nc(Cl)nc2c1ncn2[C@@H]1O[C@H](CO)[C@@H](O)[C@@H]1F [Clofarabine] (1000 nM)
68.1

Form field - read-out: normalised response; system: MCF-10A; submitted item: CC[C@@H]1C(=O)N(C)c2cnc(Nc3ccc(C(=O)N[C@H]4CC[C@H](N5CCN(CC6CC6)CC5)CC4)cc3OC)nc2N1C(C)C [Volasertib] (100 nM)
58.5

Form field - read-out: normalised response; system: MCF-10A; submitted item: COc1cc2c(Oc3ccc(NC(=O)C4(C(=O)Nc5ccc(F)cc5)CC4)cc3F)ccnc2cc1OCCCN1CCOCC1 [Foretinib] (0.1 nM)
97.2

Form field - read-out: normalised response; system: MCF-10A; submitted item: N[C@@H](Cc1ccc(N(CCCl)CCCl)cc1)C(=O)O [Melphalan] (1.25 nM)
104

* * *

# Tested on: HCC1599
# assay name: normalised response (% of control), CellTox Green; higher = less cell death (100 = DMSO, 0 = benzethonium chloride kill control)
# run parameters: incubation time: 72 h
measured parameter: normalised response (%)
Hi! Could you send only the number? It should be in %, unit omitted.

Form field - read-out: normalised response; system: HCC1599; submitted item: CO[C@H]1C[C@@H]2CC[C@@H](C)[C@@](O)(O2)C(=O)C(=O)N2CCCC[C@H]2C(=O)O[C@H]([C@H](C)C[C@@H]2CC[C@@H](O)[C@H](OC)C2)CC(=O)[C@H](C)/C=C(\C)[C@@H](O)[C@@H](OC)C(=O)[C@H](C)C[C@H](C)/C=C/C=C/C=C/1C [Sirolimus] (10 nM)
90.7

Form field - read-out: normalised response; system: HCC1599; submitted item: Cc1cc2c(F)c(Oc3ncnn4cc(OC[C@@H](C)O)c(C)c34)ccc2[nH]1 [Brivanib] (1000 nM)
80.2

Form field - read-out: normalised response; system: HCC1599; submitted item: Cn1nnc2c(C(N)=O)ncn2c1=O [Temozolomide] (1000 nM)
94.6

Form field - read-out: normalised response; system: HCC1599; submitted item: O=C(c1cc(Cc2n[nH]c(=O)c3ccccc23)ccc1F)N1CCN(C(=O)C2CC2)CC1 [Olaparib] (1000 nM)
94.9

Form field - read-out: normalised response; system: HCC1599; submitted item: COc1cc2c(Oc3ccc(NC(=O)C4(C(=O)Nc5ccc(F)cc5)CC4)cc3F)ccnc2cc1OCCCN1CCOCC1 [Foretinib] (1000 nM)
92

Form field - read-out: normalised response; system: HCC1599; submitted item: Cn1cc(C[C@@H](N)C(=O)O)c2ccccc21 [1-methyl-D-tryptophan] (5000 nM)
98

Form field - read-out: normalised response; system: HCC1599; submitted item: O=C(O)CC[C@H]1CC[C@@](c2cc(F)ccc2F)(S(=O)(=O)c2ccc(Cl)cc2)CC1 [MK-0752] (1000 nM)
109

Form field - read-out: normalised response; system: HCC1599; submitted item: NC(=O)c1cccc2cn(-c3ccc([C@@H]4CCCNC4)cc3)nc12 [MK-4827] (100 nM)
115

Form field - read-out: normalised response; system: HCC1599; submitted item: CCCCCOC(=O)Nc1nc(=O)n([C@@H]2O[C@H](C)[C@@H](O)[C@H]2O)cc1F [Capecitabine] (100 nM)
95.2

Form field - read-out: normalised response; system: HCC1599; submitted item: CC(C)C[C@H](NC(=O)[C@H](CCc1ccccc1)NC(=O)CN1CCOCC1)C(=O)N[C@@H](Cc1ccccc1)C(=O)N[C@@H](CC(C)C)C(=O)[C@@]1(C)CO1 [Carfilzomib] (10 nM)
111

Form field - read-out: normalised response; system: HCC1599; submitted item: CCN(CC)CCOc1ccc(C(=C(Cl)c2ccccc2)c2ccccc2)cc1 [Clomifene] (10000 nM)
48.6

Form field - read-out: normalised response; system: HCC1599; submitted item: N[C@@H](Cc1ccc(N(CCCl)CCCl)cc1)C(=O)O [Melphalan] (12500 nM)
18.8

Form field - read-out: normalised response; system: HCC1599; submitted item: CC(C)NC[C@@H](C(=O)N1CCN(c2ncnc3c2[C@H](C)C[C@H]3O)CC1)c1ccc(Cl)cc1 [GDC-0068] (10000 nM)
95.9

* * *

# Test system: MDA-MB-453
# assay name: drug sensitivity score (DSS), CellTiter-Glo (DSS (AUC-based score)); higher = stronger drug effect (viability inhibition or cytotoxicity); extreme values may be limits of the assay
# run parameters: incubation time: 72 h
measured parameter: drug sensitivity score

May I ask what drug sensitivity score has been recorded for CC(C)n1nc(-c2ccc3oc(N)nc3c2)c2c(N)ncnc21 ?
14.8

May I ask what drug sensitivity score has been recorded for Cc1c(N)nc([C@H](CC(N)=O)NC[C@H](N)C(N)=O)nc1C(=O)N[C@H](C(=O)N[C@H](C)[C@@H](O)[C@H](C)C(=O)N[C@H](C(=O)NCCc1nc(-c2nc(C(=O)NCCC[S+](C)C)cs2)cs1)[C@@H](C)O)[C@@H](OC1OC(CO)C(O)C(O)C1OC1OC(CO)C(O)C(OC(N)=O)C1O)c1cnc[nH]1 (some centres not stated) ?
0

May I ask what drug sensitivity score has been recorded for C[C@@H]1C[C@H]2[C@@H]3CCC4=CC(=O)C=C[C@]4(C)[C@@]3(F)[C@@H](O)C[C@]2(C)[C@@]1(O)C(=O)CO ?
4

May I ask what drug sensitivity score has been recorded for CN1CCN(c2nc(C3=C(c4c[nH]c5ccccc45)C(=O)NC3=O)c3ccccc3n2)CC1 ?
0

May I ask what drug sensitivity score has been recorded for CC[C@@H]1C(=O)N(C)c2cnc(Nc3ccc(C(=O)N[C@H]4CC[C@H](N5CCN(CC6CC6)CC5)CC4)cc3OC)nc2N1C(C)C ?
12

May I ask what drug sensitivity score has been recorded for CCc1cnn2c(NCc3ccc[n+]([O-])c3)cc(N3CCCC[C@H]3CCO)nc12 ?
16

May I ask what drug sensitivity score has been recorded for Cc1c(C(=O)Nc2ccc(N3C[C@@H](C)O[C@@H](C)C3)nc2)cccc1-c1ccc(OC(F)(F)F)cc1 ?
0
